assay: Human Plasma Protein Binding (Test B); assay type: in vitro ADME; details: fraction unbound (fu)
Here, each record is paired with measured Test B Human Plasma Protein Binding (% free) data.

Worked cases, Test B Human Plasma Protein Binding (% free) given:
# compound, result
rows = [
    ("COc1cc(F)c(O[C@H]2CC[C@@](C)(C(=O)O)CC2)cc1C(=O)N[C@@H]1[C@H]2CC[C@H](C2)[C@@H]1C(=O)NCC1(CF)CC1", "13 % free"),
    ("COc1cc(F)c(O[C@H]2CC[C@@](C)(C(=O)O)CC2)cc1C(=O)N[C@@H]1[C@H]2CC[C@H](C2)[C@@H]1C(=O)N[C@H](C)C1(C)CC1 (racemic)", "4.8 % free"),
    ("COc1cc(C#N)c(O[C@H]2CC[C@@](C)(C(=O)O)CC2)cc1C(=O)N[C@@H]1[C@H]2CC[C@H](C2)[C@@H]1C(=O)NCC1(C)CCC1", "6.3 % free"),
    ("COc1cc(F)c(OCCCCCC(=O)O)cc1C(=O)N[C@@H]1[C@H]2CC[C@H](C2)[C@@H]1C(=O)Nc1cccc(S(=O)(=O)C(F)(F)F)c1", "1.4 % free"),
    ("CCOc1cc(F)c(O[C@H]2CC[C@@](C)(C(=O)O)CC2)cc1C(=O)N[C@@H]1[C@H]2CC[C@H](C2)[C@@H]1C(=O)NCC1(C)CCC1", "4.1 % free"),
]

[Q] I'd like to know its Test B Human Plasma Protein Binding (% free). The compound in question is COc1cc(F)c(O[C@H]2CC[C@@H](C(=O)O)CC2)cc1C(=O)N[C@@H]1[C@H]2CC[C@H](C2)[C@@H]1C(=O)Nc1cc(F)c(F)c(F)c1
[A] 0.41 % free

[Q] I'd like to know its Test B Human Plasma Protein Binding (% free). The compound in question is COc1cc(-c2cc(C(=O)N[C@H]3[C@@H](C(=O)Nc4cccc(S(=O)(=O)C(F)(F)F)c4)[C@@H]4C=C[C@H]3C4)c(OC)cc2F)ccc1C(=O)O (racemic)
[A] 0.62 % free

* * *

Here, each record is paired with measured EC50 data.
biological target: human RXFP1 (Homo sapiens); assay: RXFP1 Hu cAMP (Test A); format: cell-based; parameters: expressed in transfected cells; host or cells: Jump-In T-REx CHO-K1 cells (ThermoFisher), induced with 10 ng/ml doxycycline for 24 h; conditions: RXFP1 Hu cAMP; read-out: Test A EC50
Sequence (Q9HBX9 whole entry): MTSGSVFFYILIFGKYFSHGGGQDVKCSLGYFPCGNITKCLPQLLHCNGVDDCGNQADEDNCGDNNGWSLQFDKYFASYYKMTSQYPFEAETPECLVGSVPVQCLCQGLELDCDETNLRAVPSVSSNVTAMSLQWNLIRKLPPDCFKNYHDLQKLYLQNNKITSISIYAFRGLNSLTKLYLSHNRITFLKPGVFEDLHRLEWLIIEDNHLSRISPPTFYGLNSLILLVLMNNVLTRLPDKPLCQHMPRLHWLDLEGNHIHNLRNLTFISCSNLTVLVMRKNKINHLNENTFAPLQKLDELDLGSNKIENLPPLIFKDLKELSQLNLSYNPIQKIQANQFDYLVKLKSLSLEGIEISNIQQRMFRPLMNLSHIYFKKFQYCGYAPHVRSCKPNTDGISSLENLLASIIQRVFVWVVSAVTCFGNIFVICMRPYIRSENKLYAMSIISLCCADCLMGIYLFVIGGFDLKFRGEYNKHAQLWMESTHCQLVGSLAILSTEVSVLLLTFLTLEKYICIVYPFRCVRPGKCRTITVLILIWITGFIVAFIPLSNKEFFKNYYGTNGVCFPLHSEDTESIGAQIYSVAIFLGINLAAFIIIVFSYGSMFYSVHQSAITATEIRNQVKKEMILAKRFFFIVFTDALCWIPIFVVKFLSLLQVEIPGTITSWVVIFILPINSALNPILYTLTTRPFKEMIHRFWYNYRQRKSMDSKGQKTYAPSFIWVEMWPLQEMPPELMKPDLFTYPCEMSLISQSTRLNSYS

[Q] I'd like to know its EC50. The compound in question is COc1cc(F)c(O[C@H]2CC[C@@](CO)(C(=O)O)CC2)cc1C(=O)NC1COCC1C(=O)NCC(C)(C)C (single isomer, unassigned) [Example 578]
[A] > 40 µM

[Q] I'd like to know its EC50. The compound in question is COc1cc(C#N)c(O[C@H]2CC[C@@](C)(C(=O)O)CC2)cc1C(=O)N[C@@H]1[C@H]2CC[C@H](C2)[C@@H]1C(=O)NCc1nccc(C(F)F)n1 [Example 114]
[A] > 9.4 µM

[Q] I'd like to know its EC50. The compound in question is COc1cc(F)c(O[C@H]2CC[C@@H](C(=O)O)CC2)cc1C(=O)N[C@H]1[C@@H](C(=O)Nc2ccc(F)c(S(F)(F)(F)(F)F)c2)[C@@H]2C=C[C@H]1C2 [Example 488]
[A] < 0.0036 µM
